Molecular target: InhA (Mycobacterium tuberculosis)
Sequence (P9WGR1 whole entry, looked up): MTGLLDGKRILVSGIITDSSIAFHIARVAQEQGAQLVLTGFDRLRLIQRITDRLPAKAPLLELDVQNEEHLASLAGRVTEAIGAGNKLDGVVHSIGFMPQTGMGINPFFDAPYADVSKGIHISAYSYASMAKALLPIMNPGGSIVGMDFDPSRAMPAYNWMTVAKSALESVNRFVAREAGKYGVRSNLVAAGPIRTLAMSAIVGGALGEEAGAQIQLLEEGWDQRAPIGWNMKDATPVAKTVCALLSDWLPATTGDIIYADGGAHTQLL
Assay: Enoyl ACP reductase (InhA) inhibition
Assay type: biochemical
For each of the compounds below, state its inhibition at 50 µM.
Answer shape: numeric part, then the unit.

Asked: For the compound shown here, O=C(COc1ccccc1O)NNC(=O)c1ccc(-n2cccc2)cc1 [Compound 3c] , give the reported inhibition at 50 µM.
Given back: 46%

Asked: Query (compound): O=C(COc1cc(O)cc(O)c1)NNC(=O)c1ccc(-n2cccc2)cc1 [Compound 3g] ; field requested: inhibition at 50 µM
Given back: 63%

Asked: Requested read-out: inhibition at 50 µM. Entry: Cc1ccc(OCC(=O)NNC(=O)c2ccc(-n3cccc3)cc2)c(C)c1 [Compound 3d]
Given back: 48%

Asked: # query: inhibition at 50 µM of entry Cc1ccc(OCC(=O)NNC(=O)c2ccc(-n3c(C)ccc3C)cc2)c(C)c1 [Compound 5d]
Given back: 62%

Asked: Fill in the blank: the reported inhibition at 50 µM of Cc1cc(C)cc(OCC(=O)NNC(=O)c2ccc(-n3cccc3)cc2)c1 [Compound 3h] is ____.
Given back: 59%

Asked: Quick one: inhibition at 50 µM for Cc1ccc(C)n1-c1ccc(C(=O)NNC(=O)COc2ccccc2)cc1 [Compound 5a] ?
Given back: 26%

Asked: I would be grateful if you could share the reported inhibition at 50 µM for Cc1cccc(OCC(=O)NNC(=O)c2ccc(-n3c(C)ccc3C)cc2)c1 [Compound 5e] .
Given back: 66%

----------
Parameter measured: MIC
The reply should consist of the numeric value with the unit placed after it.

Asked: MIC of Cc1cc(C)cc(OCC(=O)NNC(=O)c2ccc(-n3cccc3)cc2)c1 on M. tuberculosis H37Rv?
Given back: 3.12 µg/mL

Asked: # query: MIC | item O=C(COc1cccc(O)c1)NNC(=O)c1ccc(-n2cccc2)cc1 | system: M. tuberculosis H37Rv
Given back: 12.5 µg/mL

Asked: Give M. tuberculosis H37Rv MIC for O=C(COc1ccccc1O)NNC(=O)c1ccc(-n2cccc2)cc1
Given back: 3.12 µg/mL

Asked: Form field: MIC recorded for Cc1ccc(OCC(=O)NNC(=O)c2ccc(-n3cccc3)cc2)cc1 with M. tuberculosis H37Rv (enter value)
Given back: 12.5 µg/mL

Asked: Give recorded MIC with M. tuberculosis H37Rv for the following molecule: Cc1ccc(OCC(=O)NNC(=O)c2ccc(-n3c(C)ccc3C)cc2)c(C)c1
Given back: 1.6 µg/mL

Asked: Request: MIC, test system M. tuberculosis H37Rv, entry O=C(COc1ccccc1)NNC(=O)c1ccc(-n2cccc2)cc1
Given back: 12.5 µg/mL

Asked: Missing value: MIC, M. tuberculosis H37Rv, entry O=C(COc1ccccc1Cl)NNC(=O)c1ccc(-n2cccc2)cc1 . Fill in?
Given back: 12.5 µg/mL

Asked: State its MIC on M. tuberculosis H37Rv: Cc1ccc(C)n1-c1ccc(C(=O)NNC(=O)COc2ccc(Cl)cc2)cc1
Given back: 3.12 µg/mL

Asked: Field: MIC (M. tuberculosis H37Rv). Entry: NC(=O)c1cnccn1 [Pyrazinamide, reference compound]
Given back: 3.12 µg/mL

Asked: What is its MIC for M. tuberculosis H37Rv? Entry: Cc1ccc(OCC(=O)NNC(=O)c2ccc(-n3c(C)ccc3C)cc2)cc1
Given back: 12.5 µg/mL

Asked: // lookup MIC | system=M. tuberculosis H37Rv | key= Cc1ccc(C)n1-c1ccc(C(=O)NNC(=O)COc2cccc(O)c2)cc1
Given back: 6.25 µg/mL

Asked: Hi! What's the reported MIC for Cc1ccc(OCC(=O)NNC(=O)c2ccc(-n3cccc3)cc2)c(C)c1 on M. tuberculosis H37Rv?
Given back: 3.12 µg/mL

Asked: Recall the recorded MIC for Cc1cccc(OCC(=O)NNC(=O)c2ccc(-n3cccc3)cc2)c1 with M. tuberculosis H37Rv and state it.
Given back: 6.25 µg/mL

Asked: Which MIC is reported with M. tuberculosis H37Rv for this entry: Cc1ccc(C)n1-c1ccc(C(=O)NNC(=O)COc2ccccc2)cc1 ?
Given back: 6.25 µg/mL

Asked: For M. tuberculosis H37Rv, provide MIC of [H]/N=C(/N)N[C@H]1[C@H](O)[C@@H](O)[C@H](O[C@@H]2O[C@@H](C)[C@](O)(C=O)[C@H]2O[C@@H]2O[C@@H](CO)[C@H](O)[C@@H](O)[C@@H]2NC)[C@@H](N/C(N)=N\[H])[C@@H]1O [Streptomycin, reference compound] please.
Given back: 6.25 µg/mL

Asked: Record lookup: for M. tuberculosis H37Rv, what MIC belongs to Cc1cc(C)cc(OCC(=O)NNC(=O)c2ccc(-n3c(C)ccc3C)cc2)c1 ?
Given back: 3.12 µg/mL

Asked: M. tuberculosis H37Rv / MIC / Cc1ccc(C)n1-c1ccc(C(=O)NNC(=O)COc2ccccc2Cl)cc1 : value?
Given back: 3.12 µg/mL
